Each recorded value in this set is attributed to paper PMC10447463.

procedure summary: Zeta-potential measurement
Assay type: physicochemical
test parameters: zeta potential of peptide assemblies
quantity name: Zeta-Pot.
Answer with a number only.

>  <substance>
KIKIQINMWA

>  <Zeta-Pot.>
14.7

$$$$
>  <substance>
KIKIQIAMWQ

>  <Zeta-Pot.>
11.3

$$$$
>  <substance>
CEFEFQF

>  <Zeta-Pot.>
-13.7

$$$$

For the substance `KFKFQFFF` , give its reported Zeta-Pot..
13.27

For the substance `CQFQFQF` , give its reported Zeta-Pot..
-24.8

For the substance `KIKIQIRGD` , give its reported Zeta-Pot..
6.43

For the substance `KIKIKIQI` , give its reported Zeta-Pot..
6.97

For the substance `RGDKIKIQIC` , give its reported Zeta-Pot..
16.5

For the substance `CEIEIQINMWQ` , give its reported Zeta-Pot..
-25.8

For the substance `CKIKQII` , give its reported Zeta-Pot..
-3.83

For the substance `KYKYQY` , give its reported Zeta-Pot..
-4.2

For the substance `KLKLKLQL` , give its reported Zeta-Pot..
8.39

For the substance `CKIKQIINMWQ` , give its reported Zeta-Pot..
13.4

For the substance `RGDSGGGGGGKIKIQIC` , give its reported Zeta-Pot..
16.7

For the substance `CKWKWQW` , give its reported Zeta-Pot..
14.7

For the substance `RGDSKIKIQIC` , give its reported Zeta-Pot..
15.1

For the substance `HHHHKIKIKIKIWWWW` , give its reported Zeta-Pot..
14.5

For the substance `CEIEIQINM` , give its reported Zeta-Pot..
-15.3

For the substance `KIKQIIN` , give its reported Zeta-Pot..
-11.7

For the substance `KIKIQINMW` , give its reported Zeta-Pot..
19.7

For the substance `KIKIQIII` , give its reported Zeta-Pot..
19.8

For the substance `CKAKAQA` , give its reported Zeta-Pot..
-8.01

For the substance `HHHHKIKIKIKIYYYY` , give its reported Zeta-Pot..
13.2

For the substance `RGDKIKIQINMWQ` , give its reported Zeta-Pot..
6.59

For the substance `MKIKIQINM` , give its reported Zeta-Pot..
9.13

For the substance `KIKIQINMAQ` , give its reported Zeta-Pot..
3.07
